- measured.on: T1, Copenhagen B5 on cells infected with VVCopenhagen (YFP) virus (Vaccinia virus, Copenhagen strain, UniProt P21115 18-317)
- T1 construct: also called VV B5
- assay.protocol: flow cytometry, HT29 cells infected with Copenhagen VV
Entries and their measured EC50 follow.
Write the answer as a number in nM, unit excluded.

Record excerpt, results attached:
[
  {
    "binder": "A048-H4L1 (antibody, V domains shown) VH: EVQLLESGGGLVQPGGSLRLSCAASGFSFSSSYYMCWVRQAPGKGLEWIACIYTSSGSAYYADSVKGRFTISRTSSTTVTLQMNSLRAEDTAVYYCVRNAVGSSYYLYLWGQGTLVTVSS VL: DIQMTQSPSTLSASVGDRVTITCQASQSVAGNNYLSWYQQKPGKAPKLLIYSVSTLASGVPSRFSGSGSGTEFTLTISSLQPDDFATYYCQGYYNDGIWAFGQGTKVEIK",
    "recorded.measurement": 1.34
  },
  {
    "binder": "A048-H2L3 (antibody, V domains shown) VH: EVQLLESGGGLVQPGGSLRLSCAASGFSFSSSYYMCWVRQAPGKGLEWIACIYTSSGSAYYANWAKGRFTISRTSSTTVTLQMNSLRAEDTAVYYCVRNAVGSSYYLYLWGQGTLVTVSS VL: DIQMTQSPSSLSASVGDRVTITCQASQSVAGNNYLSWYQQKPGKVPKLLIYSVSTLASGVPSRFSGSGSGTDFTLTISSLQPEDVATYYCQGYYNDGIWAFGQGTKVEIK",
    "recorded.measurement": 0.77
  }
]

Okay, now this binder:
Read off the recorded EC50 for A048-H5L5 (antibody, V domains shown) VH: QVTLKESGPVLVKPTETLTLTCTASGFSFSSSYYMCWVRQPPGKALEWIACIYTSSGSAYYANWAKGRFTISRDTSKSQVVLTMTNMDPVDTATYFCVRNAVGSSYYLYLWGQGTLVTVSS VL: EQVLTQSPATLSLSPGERATLSCQASQSVAGNNYLSWYQQKPGQAPRLLIYSVSTLASGIPARFSGSGSGTDFTLTISSLEPEDFAVYYCQGYYNDGIWAFGQGTKLEIK
2.39
